Molecular target: T1, human TIGIT on the cell surface (human, UniProt Q495A1 22-244)
T1 sequence: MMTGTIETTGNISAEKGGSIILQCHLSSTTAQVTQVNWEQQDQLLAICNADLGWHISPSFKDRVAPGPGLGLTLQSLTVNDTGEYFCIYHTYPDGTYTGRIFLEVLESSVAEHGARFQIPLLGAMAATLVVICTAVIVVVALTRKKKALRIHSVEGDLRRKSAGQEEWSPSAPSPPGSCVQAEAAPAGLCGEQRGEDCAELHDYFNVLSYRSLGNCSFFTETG
Assay: cell-based or functional assay
Provide the reported Average EC50, IL-2 production, human TIGIT Jurkat/anti-CD3 HT-1080 co-culture assay of each item.
Please respond with the number in nM and leave the unit unwritten.

Which value of Average EC50, IL-2 production, human TIGIT Jurkat/anti-CD3 HT-1080 co-culture assay has been reported for SEC1 (format not stated) (antibody, V domains shown) VH: EVQLVESGGGLTQPGKSLKLSCEASGFTFSSFTMHWVRQSPGKGLEWVAFIRSGSGIVFYADAVRGRFTISRDNAKNLLFLQMNDLKSEDTAMYYCARRPLGHNTFDSWGQGTLVTVSS VL: DIVMTQSPSSLAVSPGEKVTMTCKSSQSLYYSGVKENLLAWYQQKPGQSPKLLIYYASIRFTGVPDRFTGSGSGTDYTLTITSVQAEDMGQYFCQQGINNPLTFGDGTKLEIK in the records?
8.46

Give the measured Average EC50, IL-2 production, human TIGIT Jurkat/anti-CD3 HT-1080 co-culture assay of MAB17-IgG4 (antibody, V domains shown) VH: QVQLVQSGAEVKKPGASVKVSCKASGYTFPAYYIHWVRQAPGQGLEWMGIINPSLGLTSYARKFQGRVTMTRDTSTSTVYMELSSLRSEDTAVYYCARGGRTTWIGALDIWGQGTMVTVSS VL: EIVMTQSPATLSVSPGERATLSCRASQSVSSNLAWYQQKPGQAPRLLIYGASTRATGIPARFSGSGSGTEFTLTISSLQSEDFAVYYCQQYVVWPPLTFGGGTKVEIKR .
0.13

Given MAB20-IgG4 (antibody, V domains shown) VH: QVQLVQSGAEVKKPGASVKVSCKASGYTFTSHYMGWVRQAPGQGLEWVGIINPSMGATSYAQKFQGRVTMTRDTSTSTVYMELSSLRSEDTAVYYCARLHVSGSYYPAYLDYWGQGTMVTVSS VL: EIVMTQSPATLSVSPGERATLSCRASQSVSSNLAWYQQKPGQAPRHLIYGASTRATGIPARFSGSGSGTEFTLTISSLQSEDFAVYYCQQYIVFPWTFGGGTKVEIKR , state its recorded Average EC50, IL-2 production, human TIGIT Jurkat/anti-CD3 HT-1080 co-culture assay.
0.68

Value lookup for Average EC50, IL-2 production, human TIGIT Jurkat/anti-CD3 HT-1080 co-culture assay; key = MAB3-IgG4 (antibody, V domains shown) VH: QLQLQESGPGLVKPSETLSLTCTVSGGSISSTSHYWGWIRQPPGKGLEWIGSIYYSGSTFYNPSLKSRVTISVDTSKNQFSLKLSSVTAADTAVYYCARDANYYGSAWAFDPWGQGTLVTVSS VL: EIVLTQSPATLSLSPGERATLSCRASQSVSSYLAWYQQKPGQAPRLLIYDASNRATGIPARFSGSGSGTDFTLTISSLEPEDFAVYYCQQHFNLPTFGGGTKVEIKR
0.33

Find the recorded Average EC50, IL-2 production, human TIGIT Jurkat/anti-CD3 HT-1080 co-culture assay belonging to MAB18-IgG4 (antibody, V domains shown) VH: QVQLVQSGAEVKKPGASVKVSCKASGYTFPAYYMHWVRQAPGQGLEWMGIINPSLGLTSYARKFQGRVTMTRDTSTSTVYMELSSLRSEDTAVYYCARGGRTTWIGAFDIWGQGTMVTVSS VL: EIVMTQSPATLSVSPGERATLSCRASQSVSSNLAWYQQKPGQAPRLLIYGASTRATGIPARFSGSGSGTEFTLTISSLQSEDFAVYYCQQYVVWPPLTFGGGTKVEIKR and report it.
0.25

For MAB13-IgG4 (antibody, V domains shown) VH: QVQLVQSGAEVKKPGASVKVSCKASGYTFGNYYMHWVRQAPGQGLEWMGIINPSLGLTSYAQKFQGRVTMTRDTSTSTVYMELSSLRSEDTAVYYCARGGRTTWIGAFDIWGQGTMVTVSS VL: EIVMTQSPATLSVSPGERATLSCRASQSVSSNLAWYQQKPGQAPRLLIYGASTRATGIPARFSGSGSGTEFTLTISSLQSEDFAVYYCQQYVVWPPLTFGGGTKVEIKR , what is its reported Average EC50, IL-2 production, human TIGIT Jurkat/anti-CD3 HT-1080 co-culture assay?
1.4

Average EC50, IL-2 production, human TIGIT Jurkat/anti-CD3 HT-1080 co-culture assay lookup needed for MAB4-IgG4 (antibody, V domains shown) VH: QLQLQESGPGLVKPSETLSLTCTVSGGSISSTSHYWGWIRQPPGKGLEWIGSIYYSGSTFYNPSLKSRVTISVDTSKNQFSLKLSSVTAADTAVYYCARDANYYGGAWAFDPWGQGTLVTVSS VL: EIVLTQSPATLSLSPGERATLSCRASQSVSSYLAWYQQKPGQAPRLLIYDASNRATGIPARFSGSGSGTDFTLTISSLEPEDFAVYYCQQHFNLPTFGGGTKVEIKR , thanks.
0.34

Quick one: Average EC50, IL-2 production, human TIGIT Jurkat/anti-CD3 HT-1080 co-culture assay for MAB15-IgG4 (antibody, V domains shown) VH: QVQLVQSGAEVKKPGASVKVSCKASGYTFREYYMHWVRQAPGQGLEWMGIINPSIGLTSYARKFQGRVTMTRDTSTSTVYMELSSLRSEDTAVYYCARGGRTTWIGAFDIWGQGTMVTVSS VL: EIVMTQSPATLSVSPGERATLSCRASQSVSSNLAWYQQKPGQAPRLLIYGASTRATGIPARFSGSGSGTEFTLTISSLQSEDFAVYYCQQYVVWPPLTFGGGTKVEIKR ?
0.21

For the binder MAB19-IgG4 (antibody, V domains shown) VH: QVQLVQSGAEVKKPGASVKVSCKASGYTFTSHYMGWVRQAPGQGLEWMGVINPSMGATSYAQKFQGRVTMTRDTSTSTVYMELSSLRSEDTAVYYCARLHVSGSYYPAYLDYWGQGTMVTVSS VL: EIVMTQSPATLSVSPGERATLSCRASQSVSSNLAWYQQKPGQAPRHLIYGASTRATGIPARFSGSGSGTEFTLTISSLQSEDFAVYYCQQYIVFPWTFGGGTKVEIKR , what Average EC50, IL-2 production, human TIGIT Jurkat/anti-CD3 HT-1080 co-culture assay is on record?
0.2

Reported Average EC50, IL-2 production, human TIGIT Jurkat/anti-CD3 HT-1080 co-culture assay, binder MAB1-IgG4 (antibody, V domains shown) VH: QLQLQESGPGLVKPSETLSLTCTVSGGSITSSSYYWGWIRQPPGKGLEWIGSIYYSGATFYNPSLKSRVTISVDTSKNQFSLKLSSVTAADTAVYYCARDANYYGSAWAFDPWGQGTLVTVSS VL: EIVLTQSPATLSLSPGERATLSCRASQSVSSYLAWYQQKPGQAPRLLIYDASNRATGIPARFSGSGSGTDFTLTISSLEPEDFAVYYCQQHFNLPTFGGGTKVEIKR : ____
0.22
